Ref: patent US20240174637A1

Target: UniProt P25098
Assay: GRK2 Inhibition Assay (TR-FRET, Example 1)
Assay type: biochemical
Conditions: Table 4; Example 1 assay; read-out: Enzymatic GRK2 IC50: Av IC50 GRK2
Protocol: Assay: GRK2 enzyme (1 nM final concentration) was diluted in 25 mM HEPES, 10 mM MgCl2, 2 mM DTT, 0.01% Tween-20, and 1 mM EGTA. Then the GRK2 mixture was added into ProxiPlate-384 white plate and pre-incubated for 30 min with test compounds at room temperature. […] After 60 min incubation time at room temperature, TR-FRET signal was measured by EnVision plate reader.
pIC50: −log10 of the molar value. Counter-ions that a name gives are not always drawn.
measurement-kind: pIC50

Worked examples follow.
Request: Recorded pIC50 of C[C@@H](NC(=O)c1cccc(NCc2nnc(-c3ccncn3)n2C)c1)c1cccc(OCCCCCCOCCOCCNc2cccc3c2CN(C2CCC(=O)NC2=O)C3=O)c1 (some centres unmarked) , please.
Response: 7.98

Request: Look up pIC50: C[C@@H](NC(=O)c1cccc(NCc2nnc(-c3ccncn3)n2C)c1)c1cccc(OCCCCCCOCCN2CCN(c3cc4c(cc3F)C(=O)N(C3CCC(=O)NC3=O)C4=O)CC2)c1 (some centres unmarked)
Response: 7.52

1. C[C@@H](NC(=O)c1cccc(NCc2nnc(-c3ccncn3)n2C)c1)c1cccc(OCCCCCCOCCOCC(=O)N2CCN(c3ccc4c(c3)CN(C3CCC(=O)NC3=O)C4=O)CC2)c1 (some centres unmarked) [Compound D138, hydrochloride]
2. Cc1ncsc1-c1ccc(CNC(=O)[C@@H]2C[C@@H](O)CN2C(=O)[C@@H](NC(=O)CCCCOCCOCCOCCCCCCOc2cccc(CNC(=O)c3cccc(NCc4nnc(-c5ccncn5)n4C)c3)c2)C(C)(C)C)cc1
Request: Please let me know which one, 1 or 2 , has a lower measured pIC50 value. API: response body contains the label of the selected item.
Response: 2

* * *

Target: GRK2 (Homo sapiens, UniProt P25098)
Sequence (P25098 whole entry): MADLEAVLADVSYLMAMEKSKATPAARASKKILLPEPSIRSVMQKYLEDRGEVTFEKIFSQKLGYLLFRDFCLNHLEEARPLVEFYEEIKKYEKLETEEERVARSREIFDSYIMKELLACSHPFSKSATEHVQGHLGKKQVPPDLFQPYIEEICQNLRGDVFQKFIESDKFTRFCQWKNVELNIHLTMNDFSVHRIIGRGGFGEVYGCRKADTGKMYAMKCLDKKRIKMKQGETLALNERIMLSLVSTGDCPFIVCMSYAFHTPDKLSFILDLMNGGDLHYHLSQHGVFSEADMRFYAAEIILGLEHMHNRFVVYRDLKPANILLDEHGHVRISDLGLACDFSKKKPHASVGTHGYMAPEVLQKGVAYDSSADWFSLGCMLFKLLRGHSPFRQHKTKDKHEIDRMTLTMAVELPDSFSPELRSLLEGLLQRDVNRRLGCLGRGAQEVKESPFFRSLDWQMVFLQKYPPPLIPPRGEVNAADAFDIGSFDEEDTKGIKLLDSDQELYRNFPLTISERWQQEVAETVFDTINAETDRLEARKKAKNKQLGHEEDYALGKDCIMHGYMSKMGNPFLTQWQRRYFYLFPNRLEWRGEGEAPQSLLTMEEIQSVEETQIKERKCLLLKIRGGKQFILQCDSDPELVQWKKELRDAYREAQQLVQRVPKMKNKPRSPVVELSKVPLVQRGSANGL
Assay: GRK2 Degradation Assay and Western Blot in PAXF1657 cells
Format: cell-based
Design: endogenous in cells; host or cells: PAXF1657
Conditions: 0.3 uM, PAXF1657 EV, 24 hrs; read-out: % GRK2 degradation at 0.3 uM in PAXF1657 EV (24 hrs)
measurement-kind: inhibition at 0.3 µM (%)

a. Cn1c(CNc2cccc(C(=O)NCc3cccc(OCCCCCCCn4cc(CCCCC(=O)Nc5cccc6c5CN(C5CCC(=O)NC5=O)C6=O)nn4)c3)c2)nnc1-c1ccncn1 (centres unmarked)
b. Cc1ncsc1-c1ccc(CNC(=O)[C@@H]2C[C@@H](O)CN2C(=O)[C@@H](NC(=O)CCCCc2cn(CCCCCCCOc3cccc(CNC(=O)c4cccc(NCc5nnc(-c6ccncn6)n5C)c4)c3)nn2)C(C)(C)C)cc1
Request: Param pair: a , b . Output: the one whose inhibition at 0.3 µM is numerically greater. Your answer should be the label attached to the chosen record.
Response: b
(b: -1%, a: -3%)

P. Cn1c(CNc2cccc(C(=O)NCc3cccc(OCCCCCCCn4cc(CCCC(=O)Nc5cccc6c5CN(C5CCC(=O)NC5=O)C6=O)nn4)c3)c2)nnc1-c1ccncn1 (centres unmarked)
Q. Cc1ncsc1-c1ccc(CNC(=O)[C@@H]2C[C@@H](O)CN2C(=O)[C@@H](NC(=O)COCCCOCCCCCOc2cccc(CNC(=O)c3cccc(NCc4nnc(-c5ccncn5)n4C)c3)c2)C(C)(C)C)cc1
R. CC(NC(=O)c1cccc(NCc2nnc(-c3ccncn3)n2C)c1)c1cccc(OCCCCCCOCCOCCOCCCCCC(=O)Nc2cccc3c2CN(C2CCC(=O)NC2=O)C3=O)c1 (centres unmarked)
Request: Order these by inhibition at 0.3 µM, descending, and give the full ranking. Kindly provide the labels arranged according to the requested ordering.
Response: R, P, Q
(R: 74%, P: 28%, Q: 17%)

* * *

Molecular target: GRK2 (Homo sapiens, UniProt P25098)
Assay: GRK2 Degradation Assay and Western Blot in PAXF1657 cells
Format: cell-based
Design: endogenous in cells; host or cells: PAXF1657
Details: Conc 3 uM; read-out: Degradation Assay - 3 point: Degradation (%)
Counter-ions that a name gives are not always drawn.
measurement-kind: inhibition at 3 µM (%)

Request: Query (compound): C[C@@H](NC(=O)c1cccc(NCc2nnc(-c3ccncn3)n2C)c1)c1cccc(C(=O)N2CC(CN3CCN(c4ccc5c(c4)CN(C4CCC(=O)NC4=O)C5=O)CC3)C2)c1 (some centres unmarked) [Compound D121, hydrochloride] ; field requested: inhibition at 3 µM
Response: 53.8

Request: Dear colleague, I am looking for the recorded inhibition at 3 µM of the following compound: Cc1ncsc1-c1ccc(CNC(=O)[C@@H]2C[C@@H](O)CN2C(=O)[C@@H](NC(=O)COCCCOCCCCCOc2ccc3c(c2)[C@H](NC(=O)c2cccc(NCc4nnc(-c5ccncn5)n4C)c2)CCO3)C(C)(C)C)cc1 [Compound D161]
Response: 30

Request: Need inhibition at 3 µM, item Cn1c(CNc2cccc(C(=O)NCc3cc(OCCCCCOCCCOCC(=O)Nc4cccc5c4CN(C4CCC(=O)NC4=O)C5=O)ccc3F)c2)nnc1-c1ccncn1 (centres unmarked) [Compound D197]
Response: 54.5

a. Cn1c(CNc2cccc(C(=O)NCc3cccc(OCCCCCOCCCOCC(=O)N4CCN(c5ccc6c(c5)CN(C5CCC(=O)NC5=O)C6=O)CC4)c3)c2)nnc1-c1ccncn1 (centres unmarked) [Compound D189]
b. C[C@@H](NC(=O)c1cccc(NCc2nnc(-c3ccncn3)n2C)c1)c1cccc(OCCCCCCOCCOCCN2CCN(c3ccc4c(c3)CN(C3CCC(=O)NC3=O)C4=O)CC2)c1 (some centres unmarked) [Compound D135]
c. C[C@H](NC(=O)c1cccc(NCc2nnc(-c3ccncn3)n2C)c1)c1cccc(OCCCCCCOCCOCCOCCCC(=O)Nc2cccc3c2CN(C2CCC(=O)NC2=O)C3=O)c1 (some centres unmarked) [Compound D154]
d. Cc1ncsc1-c1ccc(CNC(=O)[C@@H]2C[C@@H](O)CN2C(=O)[C@@H](NC(=O)COCCCOCCCCCOc2ccc([C@H](C)NC(=O)c3cccc(NCc4nnc(-c5ccncn5)n4C)c3)cc2)C(C)(C)C)cc1 [Compound D151]
Request: Form: Sort by [inhibition at 3 µM] Order [ ascending ] Answer format: list of labels, ordered as asked.
Response: c, d, a, b
(c: 9.15%, d: 34%, a: 58.5%, b: 84.3%)

* * *

Target: GRK2 (Homo sapiens)
Test: GRK2 Degradation Assay and Western Blot in PAXF1657 cells
Type: cell-based
Set-up: endogenous in cells; host or cells: PAXF1657
Details: Conc 1 uM; read-out: Degradation Assay - 3 point: Degradation (%)
Counter-ions that a name gives are not always drawn.
measurement-kind: inhibition at 1 µM (%)

Observe how each entry below is paired with its result.
Request: Please look up its inhibition at 1 µM: C[C@@H](NC(=O)c1cccc(NCc2nnc(-c3ccncn3)n2C)c1)c1cccc(OCCCCCCOCCOCCOCCC(=O)N2CCN(c3ccc4c(c3)CN(C3CCC(=O)NC3=O)C4=O)CC2)c1 (some centres unmarked)
Response: 68.7

Request: Sample C[C@@H](NC(=O)c1cccc(NCc2nnc(-c3ccncn3)n2C)c1)c1cccc(OCCCCN2CCN(c3ccc4c(c3)CN(C3CCC(=O)NC3=O)C4=O)CC2)c1 (some centres unmarked) — what was its inhibition at 1 µM?
Response: 77.5

Request: What value of inhibition at 1 µM has been reported for the following compound? Cn1c(CNc2cccc(C(=O)NCc3cc(OCCCCCOCCCOCC(=O)Nc4cccc5c4CN(C4CCC(=O)NC4=O)C5=O)ccc3F)c2)nnc1-c1ccncn1 (centres unmarked)
Response: 27.7

I. Cc1ncsc1-c1ccc([C@H](C)NC(=O)[C@@H]2C[C@@H](O)CN2C(=O)[C@@H](NC(=O)COCCCOCCCCCOc2cccc([C@@H](C)NC(=O)c3cccc(NCc4nnc(-c5ccncn5)n4C)c3)c2)C(C)(C)C)cc1
II. C[C@@H](NC(=O)c1cccc(NCc2nnc(-c3ccncn3)n2C)c1)c1ccc(OCCCCN2CCN(c3ccc4c(c3)CN(C3CCC(=O)NC3=O)C4=O)CC2)cc1 (some centres unmarked) [Compound D175, hydrochloride]
Request: Which gives the smaller inhibition at 1 µM number: I or II ? Write the label of whichever entry you select.
Response: I
(I: 39.4%, II: 89.2%)

* * *

Molecular target: GRK2 (Homo sapiens)
Assay: GRK2 Degradation Assay and Western Blot in PAXF1657 cells
Type: cell-based
Design: endogenous in cells; host or cells: PAXF1657
Conditions: Conc 3 uM; read-out: Degradation Assay - 3 point: Degradation (%)
measurement-kind: inhibition at 3 µM (%)

a. C[C@@H](NC(=O)c1cccc(NCc2nnc(-c3ccncn3)n2C)c1)c1cccc(OCCCCCCOCCOCCOCCCCCC(=O)Nc2cccc3c2CN(C2CCC(=O)N(C)C2=O)C3=O)c1 (stereo partly drawn)
b. Cc1ncsc1-c1ccc(CNC(=O)[C@@H]2C[C@@H](O)CN2C(=O)[C@@H](NC(=O)COCCCOCCCCCOc2cccc([C@@H](C)NC(=O)c3cccc(NCc4nnc(-c5ccncn5)n4C)c3)c2)C(C)(C)C)cc1
c. C[C@@H](NC(=O)c1cccc(NCc2nnc(-c3ccncn3)n2C)c1)c1ccc(OCCCN2CCN(c3ccc4c(c3)CN(C3CCC(=O)NC3=O)C4=O)CC2)cc1 (stereo partly drawn)
Request: Sort by inhibition at 3 µM with smallest numbers at the start of the list. Return the labels ranked in the requested order, please.
Response: c, b, a
